Values compiled from patent US9481654B2.

Test system: IL-4 stimulated CD23 upregulation in human Ramos B cells (JAK-1/JAK-3, Stat-6)
assay_method_text: Assay for Ramos B-Cell Line Stimulated with IL-4 (CD23 upregulation, FACS)
Assay type: cell-based
applied_conditions: Table III Example 3
pIC50: −log10 of the molar value.
# reported pIC50; entries follow

{"compound": "Cc1ccc(Nc2ncc(F)c(Nc3ccc4c(c3)CN(S(=O)(=O)C3CC3)C4)n2)cc1S(N)(=O)=O", "pIC50": 6.14}
{"compound": "C#CCNS(=O)(=O)c1ccc(Nc2ncc(C)c(Nc3ccc(CNS(=O)(=O)C4CC4)cc3)n2)cc1", "pIC50": 7.21}
{"compound": "Cc1cnc(Nc2ccc(S(=O)(=O)NC3CCCC3)cc2)nc1Nc1ccc(CNS(=O)(=O)C2CC2)cc1", "pIC50": 7.08}
{"compound": "Cc1cnc(Nc2cccc(S(N)(=O)=O)c2)nc1Nc1ccc(CNS(=O)(=O)C2CC2)c(Cl)c1", "pIC50": 7.27}
{"compound": "NS(=O)(=O)c1cccc(Nc2ncc(F)c(Nc3ccc(CNS(=O)(=O)C4CCCC4)cc3)n2)c1", "pIC50": 7.29}
{"compound": "CCCN(Cc1ccc(Nc2nc(Nc3cccc(S(N)(=O)=O)c3)ncc2F)cc1)S(=O)(=O)CC", "pIC50": 6.97}
{"compound": "Cc1ccc(Nc2ncc(C)c(Nc3ccc(CN(C)S(=O)(=O)C4CC4)cc3)n2)cc1S(N)(=O)=O", "pIC50": 6.98}
{"compound": "CCNS(=O)(=O)c1ccc(Nc2ncc(C)c(Nc3ccc(CNS(=O)(=O)C4CC4)cc3)n2)cc1", "pIC50": 7.34}
{"compound": "Cc1cnc(Nc2cccc(S(=O)(=O)NC(=O)C3(NC(=O)OC(C)(C)C)CCCC3)c2)nc1Nc1cccc(CNS(=O)(=O)C2CC2)c1", "pIC50": 4.79}
{"compound": "CNS(=O)(=O)c1ccc(Nc2ncc(C)c(Nc3cccc(CNS(=O)(=O)C4CC4)c3)n2)cc1", "pIC50": 7.06}
{"compound": "Cc1cnc(Nc2ccc(S(=O)(=O)Nc3ccccc3)cc2)nc1Nc1cccc(CNS(=O)(=O)C2CC2)c1", "pIC50": 6.60}
{"compound": "Cc1cnc(Nc2cccc(S(=O)(=O)NC(=O)CN)c2)nc1Nc1cccc(CNS(=O)(=O)C2CC2)c1 [Compound I-131]", "pIC50": 6.25}
{"compound": "CC(=O)NS(=O)(=O)c1cccc(Nc2ncc(C)c(Nc3cccc(CN(C(C)=O)S(=O)(=O)C4CC4)c3)n2)c1", "pIC50": 5.72}
{"compound": "Cc1cnc(Nc2cccc(S(=O)(=O)NC(=O)CN)c2)nc1Nc1cccc(CNS(=O)(=O)C2CC2)c1 [Compound I-133]", "pIC50": 6.15}
